These measurements were taken from the supplement of paper PMC11732987.

- target-or-system: USP5 (UniProt P45974)
- Sequence (whole entry): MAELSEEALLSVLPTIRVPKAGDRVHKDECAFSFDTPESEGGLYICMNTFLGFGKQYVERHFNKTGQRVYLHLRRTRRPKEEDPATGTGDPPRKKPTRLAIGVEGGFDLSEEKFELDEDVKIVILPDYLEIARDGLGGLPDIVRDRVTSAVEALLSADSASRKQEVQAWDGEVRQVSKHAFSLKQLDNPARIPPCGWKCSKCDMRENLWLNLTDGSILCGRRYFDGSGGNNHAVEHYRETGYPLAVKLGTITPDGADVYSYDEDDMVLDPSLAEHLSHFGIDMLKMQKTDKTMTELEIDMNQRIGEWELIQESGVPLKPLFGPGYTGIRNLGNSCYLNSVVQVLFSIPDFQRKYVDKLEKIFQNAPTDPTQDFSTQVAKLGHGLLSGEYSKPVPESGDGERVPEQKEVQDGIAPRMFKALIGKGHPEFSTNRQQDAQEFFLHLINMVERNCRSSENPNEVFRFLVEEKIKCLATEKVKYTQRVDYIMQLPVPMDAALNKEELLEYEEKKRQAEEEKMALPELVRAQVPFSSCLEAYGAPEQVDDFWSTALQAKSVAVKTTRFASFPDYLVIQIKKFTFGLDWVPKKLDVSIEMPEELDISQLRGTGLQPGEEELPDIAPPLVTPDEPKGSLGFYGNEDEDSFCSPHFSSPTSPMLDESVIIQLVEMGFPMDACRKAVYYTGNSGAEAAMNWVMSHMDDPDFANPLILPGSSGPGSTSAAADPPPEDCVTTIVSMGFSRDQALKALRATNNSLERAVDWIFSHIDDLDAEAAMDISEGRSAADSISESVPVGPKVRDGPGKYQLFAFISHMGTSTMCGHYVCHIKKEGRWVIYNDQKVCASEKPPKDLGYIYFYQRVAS
- method-description: log2 ratio of Biotin-Ahx-Ub-VS probe labelling (fragment/DMSO); higher = less target engagement (more negative = stronger competition), active = hit call of the paper (q ≤ 0.05, log2 ratio ≤ -1)
- cond: compound concentration: 200 uM; treatment time: 3 h
measurement-kind: log2 ratio of Biotin-Ahx-Ub-VS probe labelling
API doc: respond with a numeric literal and nothing else, no unit.

Example entries begin here.
**Q:** Any idea what its log2 ratio of Biotin-Ahx-Ub-VS probe labelling is? The compound is `O=C(CCl)Nc1cc2c(cc1Cl)OCCO2`
**A:** 0.0658

**Q:** Any idea what its log2 ratio of Biotin-Ahx-Ub-VS probe labelling is? The compound is NC(=O)C1CCCN(C(=O)CCl)C1 (centres undefined)
**A:** -0.0828

**Q:** Any idea what its log2 ratio of Biotin-Ahx-Ub-VS probe labelling is? The compound is `O=C(CCl)NC1(c2ccc3c(c2)OCCO3)CCCC1`
**A:** 0.179

**Q:** Any idea what its log2 ratio of Biotin-Ahx-Ub-VS probe labelling is? The compound is COc1ccc(C2CCCN2C(=O)CCl)c(OC)c1 (centres undefined)
**A:** 0.0602

**Q:** Any idea what its log2 ratio of Biotin-Ahx-Ub-VS probe labelling is? The compound is `Cc1noc(C)c1CNC(=O)CCl`
**A:** -0.403

More entries:
**Q:** Any idea what its log2 ratio of Biotin-Ahx-Ub-VS probe labelling is? The compound is `COc1cccc(CN(C)C(=O)CCl)c1`
**A:** 0.462

**Q:** Any idea what its log2 ratio of Biotin-Ahx-Ub-VS probe labelling is? The compound is `O=C(CCl)N1CC2(CCOCC2)C1`
**A:** 0.362

**Q:** Any idea what its log2 ratio of Biotin-Ahx-Ub-VS probe labelling is? The compound is `O=C(CCl)Nc1cccc(C(=O)N2CCSCC2)c1`
**A:** -0.171

**Q:** Any idea what its log2 ratio of Biotin-Ahx-Ub-VS probe labelling is? The compound is `CNC(=O)C1CCN(C(=O)CCl)CC1`
**A:** -0.203

**Q:** Any idea what its log2 ratio of Biotin-Ahx-Ub-VS probe labelling is? The compound is Cc1ccc(N(C(=O)CCl)C2C=CS(=O)(=O)C2)cc1 (centres undefined)
**A:** 0.431

**Q:** Any idea what its log2 ratio of Biotin-Ahx-Ub-VS probe labelling is? The compound is CC(NC(=O)CCl)c1ccc2[nH]ncc2c1 (centres undefined)
**A:** -0.557

**Q:** Any idea what its log2 ratio of Biotin-Ahx-Ub-VS probe labelling is? The compound is `O=C(CN1CCN(C(=O)CCl)CC1)Nc1cccc(F)c1`
**A:** 0.215

**Q:** Any idea what its log2 ratio of Biotin-Ahx-Ub-VS probe labelling is? The compound is `Cc1cccc(N(CCC#N)C(=O)CCl)c1C`
**A:** 0.289

**Q:** Any idea what its log2 ratio of Biotin-Ahx-Ub-VS probe labelling is? The compound is NC(=O)C1CCCCN1C(=O)CCl (centres undefined)
**A:** 0.371

----------
- target-or-system: EIF3F (UniProt O00303)
- Sequence (O00303 whole entry, the tested form may be a part): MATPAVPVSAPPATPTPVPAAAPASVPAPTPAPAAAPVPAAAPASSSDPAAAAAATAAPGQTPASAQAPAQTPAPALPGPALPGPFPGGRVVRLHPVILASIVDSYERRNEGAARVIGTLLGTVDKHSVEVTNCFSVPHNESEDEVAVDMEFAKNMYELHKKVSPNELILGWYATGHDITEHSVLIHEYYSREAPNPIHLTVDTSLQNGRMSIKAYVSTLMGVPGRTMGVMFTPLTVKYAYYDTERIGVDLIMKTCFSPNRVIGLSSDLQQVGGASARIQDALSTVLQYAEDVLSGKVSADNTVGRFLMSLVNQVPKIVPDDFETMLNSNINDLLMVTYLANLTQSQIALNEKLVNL
- method-description: log2 ratio of Biotin-Ahx-Ub-VS probe labelling (fragment/DMSO); higher = less target engagement (more negative = stronger competition), active = hit call of the paper (q ≤ 0.05, log2 ratio ≤ -1)
- cond: compound concentration: 200 uM; treatment time: 3 h
measurement-kind: log2 ratio of Biotin-Ahx-Ub-VS probe labelling
API doc: respond with a numeric literal and nothing else, no unit.

**Q:** Any idea what its log2 ratio of Biotin-Ahx-Ub-VS probe labelling is? The compound is `CN1C(=O)c2ccc(NC(=O)CCl)cc2C1=O`
**A:** -0.166

**Q:** Any idea what its log2 ratio of Biotin-Ahx-Ub-VS probe labelling is? The compound is `O=C(CCl)NCc1cccc(F)c1`
**A:** -0.186

**Q:** Any idea what its log2 ratio of Biotin-Ahx-Ub-VS probe labelling is? The compound is Cc1ccc(N2CCC(NC(=O)CCl)C2=O)cc1 (centres undefined)
**A:** 0.043

**Q:** Any idea what its log2 ratio of Biotin-Ahx-Ub-VS probe labelling is? The compound is `Cl.Cn1cnc2cc(CNC(=O)CCl)ccc21`
**A:** -0.304

**Q:** Any idea what its log2 ratio of Biotin-Ahx-Ub-VS probe labelling is? The compound is `O=C(CCl)N1CCN(c2nc3ccccc3o2)CC1`
**A:** -0.704

**Q:** Any idea what its log2 ratio of Biotin-Ahx-Ub-VS probe labelling is? The compound is CC(c1ccccc1)N(C)C(=O)CCl (centres undefined)
**A:** 0.107

**Q:** Any idea what its log2 ratio of Biotin-Ahx-Ub-VS probe labelling is? The compound is `C[C@@H](NC(=O)CCl)c1cccc(C#N)c1`
**A:** -0.345

**Q:** Any idea what its log2 ratio of Biotin-Ahx-Ub-VS probe labelling is? The compound is `O=C(CCl)NC1CCC2(CC1)OCCO2`
**A:** -0.268

More entries:
**Q:** Any idea what its log2 ratio of Biotin-Ahx-Ub-VS probe labelling is? The compound is `COc1ccc(Cl)cc1NC(=O)CCl`
**A:** -0.594

**Q:** Any idea what its log2 ratio of Biotin-Ahx-Ub-VS probe labelling is? The compound is CC(NC(=O)CCl)c1cccc(Cl)c1 (centres undefined)
**A:** 0.0315

**Q:** Any idea what its log2 ratio of Biotin-Ahx-Ub-VS probe labelling is? The compound is `Cc1conc1C1CN(C(=O)CCl)C1`
**A:** -0.671

**Q:** Any idea what its log2 ratio of Biotin-Ahx-Ub-VS probe labelling is? The compound is `CS(=O)(=O)N1CCCN(C(=O)CCl)CC1`
**A:** -0.0174

**Q:** Any idea what its log2 ratio of Biotin-Ahx-Ub-VS probe labelling is? The compound is `O=C(CCl)N1CCC(=C(F)CO)C1`
**A:** -0.0747

**Q:** Any idea what its log2 ratio of Biotin-Ahx-Ub-VS probe labelling is? The compound is `Cc1c(C#N)c(NC(=O)CCl)n(Cc2ccco2)c1C`
**A:** -0.174

**Q:** Any idea what its log2 ratio of Biotin-Ahx-Ub-VS probe labelling is? The compound is `O=C(CCl)NCCc1ccc(F)cc1`
**A:** 0.0338

**Q:** Any idea what its log2 ratio of Biotin-Ahx-Ub-VS probe labelling is? The compound is `O=C(CCl)N1CCCN(C(=O)c2ccc(Cl)cc2)CC1`
**A:** -0.31

**Q:** Any idea what its log2 ratio of Biotin-Ahx-Ub-VS probe labelling is? The compound is `Cc1cccc(NC(=O)CCl)c1C`
**A:** -0.272

**Q:** Any idea what its log2 ratio of Biotin-Ahx-Ub-VS probe labelling is? The compound is `Cl.O=C(CCl)NC1(c2ncccn2)CCC1`
**A:** -0.137

**Q:** Any idea what its log2 ratio of Biotin-Ahx-Ub-VS probe labelling is? The compound is O=C(CCl)N1CCOCCC1c1ccccc1 (centres undefined)
**A:** -0.267

**Q:** Any idea what its log2 ratio of Biotin-Ahx-Ub-VS probe labelling is? The compound is `O=C(CCl)NC1CCN(C(=O)C2CCCCC2)CC1`
**A:** -0.569

**Q:** Any idea what its log2 ratio of Biotin-Ahx-Ub-VS probe labelling is? The compound is O=C(CCl)NC1CCCCNC1=O (centres undefined)
**A:** -0.598

**Q:** Any idea what its log2 ratio of Biotin-Ahx-Ub-VS probe labelling is? The compound is `O=C(CCl)NCc1cccc(N2CCCC2=O)c1`
**A:** 0.179
